# Procedure summary: Viscosity, Brookfield viscometer DV-II+
# Assay type: physicochemical
# Measurement context: 25° C., spindle No. 2, 12 rpm

# Molecule, Readout unit, Viscosity
records = [
    ("CC(C)(C)C(=O)OCC1CC2CC1C1CCCC21 (stereo not shown) [TCDNP]", "mPa · s", 32),
    ("CC(C)C(=O)OCC1CC2CC1C1CCCC21 (stereo not shown) [TCDIB]", "mPa · s", 15),
    ("CCCCC(=O)OCC1CC2CC1C1CCCC21 (stereo not shown) [TCDP]", "mPa · s", 15),
    ("CC(C)CCCC(C)CCCC(C)CCCCC(C)CCCC(C)CCCC(C)C (stereo not shown) [Squalane, reference compound]", "mPa · s", 32),
    ("CC(C)CCCCCCCCCCCCCCCOC(=O)C(C)(C)C [Isostearyl neopentanoate, reference compound]", "mPa · s", 14),
    ("CC(C)CCCCCCCOC(=O)C(C)(C)C [Isodecyl neopentanoate, reference compound]", "mPa · s", 4),
    ("CCCCCCCCCCC(CO)CCCCCCCC (stereo not shown) [Octyldodecanol, reference compound]", "mPa · s", 49),
]

---

Viscosity overview
# Procedure summary: Viscosity, Brookfield viscometer DV-II+
# Assay type: physicochemical
# Measurement context: 25° C., spindle No. 2, 12 rpm

# Molecule, Viscosity / mPa · s
rows = [
    ("CC(C)(C)C(=O)OCC1CC2CC1C1CCC(COC(=O)C(C)(C)C)C21 (stereo not shown)", 462),
    ("CC(CC(=O)OCC1CC2CC1C1CCCC21)CC(C)(C)C (stereo not shown)", 44),
    ("CCCCCCCCCCCCCCCCCC(=O)OC(CCCCCC)CCCCCCCCCCC(=O)OCC(CCCCCCCC)CCCCCCCCCC (stereo not shown) [Octyldodecyl stearoyloxy stearate, reference compound]", 96),
    ("CCCCCCCCCCC(CO)CCCCCCCCCC [Decyldodecanol, reference compound]", 69),
]

---

# Procedure summary: Glossiness (refractive index), Abbe refractometer NTR-2T
# Format: physicochemical
# Measurement context: 20° C.
Refractive index overview
Measured attribute: Refractive index

# Molecule, Result number
data = [
    ("CC(C)C(=O)OCC1CC2CC1C1CCCC21 (centres unmarked)", 1.483),
    ("CC(CC(=O)OCC1CC2CC1C1CCCC21)CC(C)(C)C (centres unmarked)", 1.479),
    ("CC(C)CCCCCCCCCCOC(=O)CCCCCC(C)C [Isotridecyl isononanoate, reference compound]", 1.445),
    ("CC(C)CCCCCCCOC(=O)C(C)(C)C [Isodecyl neopentanoate, reference compound]", 1.430),
    ("CCCCC(=O)OCC1CC2CC1C1CCCC21 (centres unmarked)", 1.484),
    ("CC(C)CCCCCCCCCCCCCCCOC(=O)C(C)(C)C [Isostearyl neopentanoate, reference compound]", 1.446),
    ("CC(C)(C)C(=O)OCC1CC2CC1C1CCCC21 (centres unmarked)", 1.479),
    ("CC(C)(C)C(=O)OCC1CC2CC1C1CCC(COC(=O)C(C)(C)C)C21 (centres unmarked)", 1.472),
]

---

# Procedure summary: Smoothness (MIU, MMD), KES-SE Friction Tester on artificial leather
# Assay type: physicochemical
# Measurement context: 25° C., 0.1 ml on artificial leather, average of three
Measured attribute: MMD (fluctuation of mean frictional coefficient)

# Compound, Result number
measured = [
    ("CCCCCCCCCCCCCCCCCC(=O)OC(CCCCCC)CCCCCCCCCCC(=O)OCC(CCCCCCCC)CCCCCCCCCC (stereo not drawn) [Octyldodecyl stearoyloxy stearate, reference compound]", 0.006),
    ("CCCCC(=O)OCC1CC2CC1C1CCCC21 (stereo not drawn)", 0.005),
    ("CC(C)CCCCCCCCCCCCCCCOC(=O)C(C)(C)C [Isostearyl neopentanoate, reference compound]", 0.006),
    ("CC(C)CCCC(C)CCCC(C)CCCCC(C)CCCC(C)CCCC(C)C (stereo not drawn) [Squalane, reference compound]", 0.007),
    ("CC(C)C(=O)OCC1CC2CC1C1CCCC21 (stereo not drawn)", 0.005),
    ("CCCCCCCCCCC(CO)CCCCCCCC (stereo not drawn) [Octyldodecanol, reference compound]", 0.007),
]

---

# Procedure summary: Smoothness (MIU, MMD), KES-SE Friction Tester on artificial leather
# Type: physicochemical
# Measurement context: 25° C., 0.1 ml on artificial leather, average of three
Measured attribute: MMD (fluctuation of mean frictional coefficient)

# Compound, Result number
data = [
    ("CC(C)CCCCCCCOC(=O)C(C)(C)C [Isodecyl neopentanoate, reference compound]", 0.005),
    ("CC(C)(C)C(=O)OCC1CC2CC1C1CCCC21 (centres unmarked) [TCDNP]", 0.006),
    ("CC(CC(=O)OCC1CC2CC1C1CCCC21)CC(C)(C)C (centres unmarked) [TCDIN]", 0.006),
    ("CC(C)(C)C(=O)OCC1CC2CC1C1CCC(COC(=O)C(C)(C)C)C21 (centres unmarked) [TCDDNP]", 0.006),
    ("CCCCCCCCCCC(CO)CCCCCCCCCC [Decyldodecanol, reference compound]", 0.006),
]
